- ASSAY_INFO: Example 5: degradation over time of black currant anthocyanosides at 37° C., pH 7.0, with/without GSH (HPLC)
- Type: physicochemical
- ASSAY_CONTEXT: GSH protected sample (20 mg), pH 7.0, 37° C., 0:15 h

{"columns": ["MOLECULE", "Peak Area"],
 "data": [
  ["OC[C@H]1O[C@@H](Oc2cc3c(O)cc(O)cc3[o+]c2-c2ccc(O)c(O)c2)[C@H](O)[C@@H](O)[C@@H]1O [Cn-3O-Glc, Cyanidin 3-o-glucoside]", 426.1],
  ["C[C@@H]1O[C@@H](OC[C@H]2O[C@@H](Oc3cc4c(O)cc(O)cc4[o+]c3-c3ccc(O)c(O)c3)[C@H](O)[C@@H](O)[C@@H]2O)[C@H](O)[C@H](O)[C@H]1O [Cn-3-O-Rut, Cyanidin-3-O-rutinoside]", 3108.1],
  ["C[C@@H]1O[C@@H](OC[C@H]2O[C@@H](Oc3cc4c(O)cc(O)cc4[o+]c3-c3cc(O)c(O)c(O)c3)[C@H](O)[C@@H](O)[C@@H]2O)[C@H](O)[C@H](O)[C@H]1O [Dp-3-O-Rut, Delphinidin-3-O-rutinoside]", 4584.2],
  ["OC[C@H]1O[C@@H](Oc2cc3c(O)cc(O)cc3[o+]c2-c2cc(O)c(O)c(O)c2)[C@H](O)[C@@H](O)[C@@H]1O [Dp-3O-Glc, Delphinidin 3-o-glucoside]", 1280.4]
]}

---

Some molecules, each annotated with its measured Peak Area.
- ASSAY_INFO: Example 5: degradation over time of black currant anthocyanosides at 37° C., pH 7.0, with/without GSH (HPLC)
- Format: physicochemical
- ASSAY_CONTEXT: Blank sample, pH 7.0, 37° C., 1:30 h
PROPERTY_NAME: Peak Area

{"columns": ["MOLECULE", "RESULT"],
 "data": [
  ["C[C@@H]1O[C@@H](OC[C@H]2O[C@@H](Oc3cc4c(O)cc(O)cc4[o+]c3-c3ccc(O)c(O)c3)[C@H](O)[C@@H](O)[C@@H]2O)[C@H](O)[C@H](O)[C@H]1O [Cn-3-O-Rut, Cyanidin-3-O-rutinoside]", 2130.7],
  ["C[C@@H]1O[C@@H](OC[C@H]2O[C@@H](Oc3cc4c(O)cc(O)cc4[o+]c3-c3cc(O)c(O)c(O)c3)[C@H](O)[C@@H](O)[C@@H]2O)[C@H](O)[C@H](O)[C@H]1O [Dp-3-O-Rut, Delphinidin-3-O-rutinoside]", 2299.5],
  ["OC[C@H]1O[C@@H](Oc2cc3c(O)cc(O)cc3[o+]c2-c2cc(O)c(O)c(O)c2)[C@H](O)[C@@H](O)[C@@H]1O [Dp-3O-Glc, Delphinidin 3-o-glucoside]", 605.4],
  ["OC[C@H]1O[C@@H](Oc2cc3c(O)cc(O)cc3[o+]c2-c2ccc(O)c(O)c2)[C@H](O)[C@@H](O)[C@@H]1O [Cn-3O-Glc, Cyanidin 3-o-glucoside]", 293.4]
]}

---

Some compounds, each annotated with its measured Peak Area, GSH 20 mg.
- ASSAY_INFO: Example 3: stability of black currant extract anthocyanosides, 4 hours at 37° C., pH 7.0, with/without DHLA, GSH or L-cysteine (HPLC)
- Assay type: physicochemical
- ASSAY_CONTEXT: pH 7.0, 37° C., 4 hours
PROPERTY_NAME: Peak Area, GSH 20 mg

{"columns": ["COMPOUND", "RESULT"],
 "data": [
  ["OC[C@H]1O[C@@H](Oc2cc3c(O)cc(O)cc3[o+]c2-c2ccc(O)c(O)c2)[C@H](O)[C@@H](O)[C@@H]1O [Cn-3O-Glc, Cyanidin 3-o-glucoside]", 315.7],
  ["C[C@@H]1O[C@@H](OC[C@H]2O[C@@H](Oc3cc4c(O)cc(O)cc4[o+]c3-c3ccc(O)c(O)c3)[C@H](O)[C@@H](O)[C@@H]2O)[C@H](O)[C@H](O)[C@H]1O [Cn-3-O-Rut, Cyanidin-3-O-rutinoside]", 2299],
  ["OC[C@H]1O[C@@H](Oc2cc3c(O)cc(O)cc3[o+]c2-c2cc(O)c(O)c(O)c2)[C@H](O)[C@@H](O)[C@@H]1O [Dp-3O-Glc, Delphinidin 3-o-glucoside]", 745.6],
  ["C[C@@H]1O[C@@H](OC[C@H]2O[C@@H](Oc3cc4c(O)cc(O)cc4[o+]c3-c3cc(O)c(O)c(O)c3)[C@H](O)[C@@H](O)[C@@H]2O)[C@H](O)[C@H](O)[C@H]1O [Dp-3-O-Rut, Delphinidin-3-O-rutinoside]", 2764]
]}

---

- ASSAY_INFO: Example 5: degradation over time of black currant anthocyanosides at 37° C., pH 7.0, with/without GSH (HPLC)
- Type: physicochemical
- ASSAY_CONTEXT: Blank sample, pH 7.0, 37° C., 2:15 h

{"columns": ["MOLECULE", "Peak Area"],
 "data": [
  ["OC[C@H]1O[C@@H](Oc2cc3c(O)cc(O)cc3[o+]c2-c2cc(O)c(O)c(O)c2)[C@H](O)[C@@H](O)[C@@H]1O [Dp-3O-Glc, Delphinidin 3-o-glucoside]", 449.8],
  ["C[C@@H]1O[C@@H](OC[C@H]2O[C@@H](Oc3cc4c(O)cc(O)cc4[o+]c3-c3cc(O)c(O)c(O)c3)[C@H](O)[C@@H](O)[C@@H]2O)[C@H](O)[C@H](O)[C@H]1O [Dp-3-O-Rut, Delphinidin-3-O-rutinoside]", 1747.2],
  ["C[C@@H]1O[C@@H](OC[C@H]2O[C@@H](Oc3cc4c(O)cc(O)cc4[o+]c3-c3ccc(O)c(O)c3)[C@H](O)[C@@H](O)[C@@H]2O)[C@H](O)[C@H](O)[C@H]1O [Cn-3-O-Rut, Cyanidin-3-O-rutinoside]", 1851.7],
  ["OC[C@H]1O[C@@H](Oc2cc3c(O)cc(O)cc3[o+]c2-c2ccc(O)c(O)c2)[C@H](O)[C@@H](O)[C@@H]1O [Cn-3O-Glc, Cyanidin 3-o-glucoside]", 250.3]
]}

---

- ASSAY_INFO: Example 9: stability of bilberry extract anthocyanosides, 4 hours at 37° C., pH 7.0, with/without L-cysteine
- Format: physicochemical
- ASSAY_CONTEXT: pH 7.0, 37° C., 4 hours
- Procedure: Sample a) 60 mg bilberry extract [37% anthocyanosides] (0.048 mmol anthocyanosides expressed as cyanidin-3-O-glucoside) were added to a 100 ml flask with 60 ml sodium phosphate buffer (5% [w/w], pH=7.0), and stirred until dissolution was complete. A 1 ml sample was taken immediately and acidified with formic acid to pH=1.0 and analyzed by HPLC for the content of anthocyanosides (Fresh Sample). The remaining solution was kept for 4 hours at 37° C. (water bath) with stirring. […]

{"columns": ["COMPOUND", "Peak Area, L-cysteine 20 mg"],
 "data": [
  ["OC[C@H]1O[C@@H](Oc2cc3c(O)cc(O)cc3[o+]c2-c2cc(O)c(O)c(O)c2)[C@H](O)[C@@H](O)[C@H]1O [Dp-3O-Gal, Delphinidin 3-o-galactoside]", 331.3],
  ["OC[C@H]1O[C@@H](Oc2cc3c(O)cc(O)cc3[o+]c2-c2ccc(O)c(O)c2)[C@H](O)[C@@H](O)[C@@H]1O [Cn-3O-Glc, Cyanidin 3-o-glucoside]", 797.5],
  ["OC[C@H]1O[C@@H](Oc2cc3c(O)cc(O)cc3[o+]c2-c2ccc(O)c(O)c2)[C@H](O)[C@@H](O)[C@H]1O [Cn-3O-Gal, Cyanidin-3-O-galactoside]", 360.2],
  ["OC[C@H]1O[C@@H](Oc2cc3c(O)cc(O)cc3[o+]c2-c2cc(O)c(O)c(O)c2)[C@H](O)[C@@H](O)[C@@H]1O [Dp-3O-Glc, Delphinidin 3-o-glucoside]", 350.8]
]}

---

- ASSAY_INFO: Example 1: stability of bilberry extract anthocyanosides, 4 hours at 37° C., pH 7.0, with/without DHLA or GSH (HPLC)
- Assay type: physicochemical
- ASSAY_CONTEXT: 20 mg reduced L-glutathione, pH 7.0, 37° C., 4 hours
PROPERTY_NAME: Peak Area, GSH (4 hours)

{"columns": ["MOLECULE", "PROPERTY_NAME", "READOUT_NUMBER"],
 "data": [
  ["COc1cc(-c2[o+]c3cc(O)cc(O)c3cc2O[C@@H]2O[C@H](CO)[C@@H](O)[C@H](O)[C@H]2O)cc(OC)c1O [Mv-3O-Glc, Malvidin 3-o-glucoside]", "Peak Area, GSH (4 hours)", 336.2],
  ["COc1cc(-c2[o+]c3cc(O)cc(O)c3cc2OC2OC(CO)C(O)C(O)C2O)cc(O)c1O (centres unmarked) [Pt-3O-Gal, Petunidin 3-o-galactoside]", "Peak Area, GSH (4 hours)", 150.0],
  ["COc1cc(-c2[o+]c3cc(O)cc(O)c3cc2O[C@@H]2OC[C@H](O)[C@H](O)[C@H]2O)cc(OC)c1O [Mv-3O-Ara, Malvidin 3-o-arabinoside]", "Peak Area, GSH (4 hours)", 81.2],
  ["COc1cc(-c2[o+]c3cc(O)cc(O)c3cc2O[C@@H]2O[C@H](CO)[C@@H](O)[C@H](O)[C@H]2O)ccc1O [Pe-3O-Glc, Peonidin 3-o-glucoside]", "Peak Area, GSH (4 hours)", 172.0],
  ["OC[C@H]1O[C@@H](Oc2cc3c(O)cc(O)cc3[o+]c2-c2cc(O)c(O)c(O)c2)[C@H](O)[C@@H](O)[C@H]1O [Dp-3O-Gal, Delphinidin 3-o-galactoside]", "Peak Area, GSH (4 hours)", 331.3]
]}
